test: yeast display, Sf9 membrane polyspecificity reagent, FACS + sequencing; frameworks hold sequencing errors
MEASURED ATTRIBUTE: polyreactivity (PSR sort gate)

Solved entries (count: 5):
{"RESIDUE CODES": "QLQLVESGGGLVQAGGSLRLSCAASGFTFWGYTIGWYRPAPGKERQLVAGITLSGGSTYYADSVKGRFTISRDNAKNTVYLQMNSLKPEDTAVYYCAAKPYQVSSYDFSLRDYWGQGTQVTVSS", "polyreactivity (PSR sort gate)": "low polyreactivity"}
{"RESIDUE CODES": "QVQLVESGGGLVQAGGSLRLSCAASGRIFDVYAMGWYRQAPGKERELVAGITYSGGSTYYADSVKGRFTISRDNAKNTVYVQMNSLKPEDTAVYYCAALNGDPYVQLLEDYWGQGTQVTVSS", "polyreactivity (PSR sort gate)": "low polyreactivity"}
{"RESIDUE CODES": "QVQHVESGGGLVQAGGSLRLSCAASGRIFQRNTMGWYRQAPGKERELVARINYSGGSTYYADSVKGRFTISRDNAKTTVYLQLNSLKPEDTAVYYCAARVWTWSIYYPAGLSSYDYWGQGTQVTVSS", "polyreactivity (PSR sort gate)": "low polyreactivity"}
{"RESIDUE CODES": "QVQLVESGGGLVQAGGSLRLSCAASGFTFGRNTMGWYRQAPGKERELVAAIDSGGNTYADSVKGRFTISRDNAKNTVYLQMNSLKPEDTAVYYCAVDVGEFSSYGYWGQGTQVTVSS", "polyreactivity (PSR sort gate)": "low polyreactivity"}
{"RESIDUE CODES": "QVQLVESGGGLVQAGGSLRLTCAASGIIFRVYAMGWYRQATGKERELVAAISQRGGSTYYADSVKGRFTISRDNAKNTVYLLMNSLKPEDTAVYYCAATAPAAAYRARYGYDYWGQGTQVTVSS", "polyreactivity (PSR sort gate)": "high polyreactivity"}

Sample "QVQLVESGGGLVQAGGSLRLSCAASGRTFQFYAMGWYRQAPGKEREWVAAISRSSGSTTYADSVKGRFTISRDNAKNTVYLQMNSLKPEDTAVFYCDADARYRSYSLLVRPARYYYWGQGTQVTVAS" — what was its polyreactivity (PSR sort gate)?
high polyreactivity

* * *

assay: yeast display, Sf9 membrane polyspecificity reagent, FACS + sequencing; frameworks hold sequencing errors

{"RESIDUE CODES": "QVQLVESGGGLVQAGGSLRLSCAASGFTFAHNAMGWYRQAPGKERELVAAISSRGGRTFYADSVKGRFTISRDNAKNTVYLQMNSLKPEDTAVYYCNRVRSFQYDYWGQGTQVTVSS", "polyreactivity (PSR sort gate)": "high polyreactivity"}
{"RESIDUE CODES": "QVQLVESGGGLVQAGGSLRLSCAASGLIFSVNAMGWYRQAPGKERELVAAITWSSGRTYYADSVKGRFTISRDNAKNSVYLQMISLKPEDTAVYYCAGVSYWYGLMYYWGQGTQVTVSS", "polyreactivity (PSR sort gate)": "high polyreactivity"}
{"RESIDUE CODES": "QVQLVESGGGLVQAGGSLRLSCAASGRTYGYYAMGWYRQAPGKERELVAAITRSGGSTYYADSVKGRFTISRDNAKNTVYLQMNSLKPEDTAVYYCNAVYYKGYGYWGQGSQVTVSS", "polyreactivity (PSR sort gate)": "high polyreactivity"}
{"RESIDUE CODES": "QVQLVESGGGLVQAGGSLRLSCAPSGGTFLSNVMVWYRQAPGKERELVAAISSRGGSTYFADSVKGRFTISRDNAKNNVYFQMNSLKPVDTAVYYCNVRAAHYKDRQYDYWGQGTQGTVSS", "polyreactivity (PSR sort gate)": "high polyreactivity"}
